Source: patent US20250230165A1

assay-target: Human Polθ polymerase domain (aa1820-2590) (Homo sapiens)
Construct: Human Polθ polymerase domain (aa1820-2590) was expressed in E. coli; made in house; host or cells: E. coli
protocol: Polθ Polymerase Domain Kinact/KI Assay (PicoGreen)
Assay type: biochemical
measurement-parameters: 0.8 nM Polθ, 100 nM DNA substrate, kobs vs [I] fit for 2-step covalent inhibitor

# molecule, quantity-unit, Kinact/Kl
data = [
    ("C=CC(=O)N1Cc2nc(CN3C[C@H]4CC(=O)N(c5cc(C(F)(F)F)cc(C)n5)[C@@H]4C(=O)N(C)c4cccc(C)c43)n(C)c2C1", "M⁻¹ s⁻¹", "1.28e+06"),
    ("Cc1cc(C(F)(F)F)cc(N2C(=O)C[C@@H]3CN(Cc4ccc5c(c4)N(C(=O)/C=C/CN(C)C)CCO5)c4c(Cl)cccc4N(C)C(=O)[C@H]32)n1", "M⁻¹ s⁻¹", 370000),
    ("C=C(CN(C)C)C(=O)N1CC[C@@H](COCCN2C[C@H]3CC(=O)N(c4cc(C(F)(F)F)cc(C)n4)[C@@H]3C(=O)N(C)c3cccc(C)c32)C1", "M⁻¹ s⁻¹", "2.72e+06"),
    ("C=CC(=O)N1Cc2ncc(CN3C[C@H]4CC(=O)N(c5cc(C(F)(F)F)cc(C)n5)[C@@H]4C(=O)N(C)c4cccc(C)c43)cc2[C@@H]1CC#N (racemic) [Example 320b]", "M⁻¹ s⁻¹", "2.48e+06"),
    ("C=CC(=O)N1CCC[C@@H]1c1nnc(CN2C[C@H]3CC(=O)N(c4cc(C(F)(F)F)cc(C)n4)[C@@H]3C(=O)N(C)c3cccc(C)c32)o1", "M⁻¹ s⁻¹", 33000),
    ("C=CC(=O)N1C[C@H]2CCN(CCN3C[C@H]4CC(=O)N(c5cc(C(F)(F)F)cc(C)n5)[C@@H]4C(=O)N(C)c4cccc(F)c43)C[C@H]2C1 (relative stereo) [Example 25a]", "M⁻¹ s⁻¹", 200000),
    ("C=CC(=O)N1CC2(CN(CCN3C[C@H]4CC(=O)N(c5cc(C(F)(F)F)cc(C)n5)[C@@H]4C(=O)N(C)c4cccc(Cl)c43)CC(=O)N2C)C1", "M⁻¹ s⁻¹", "2.49e+06"),
    ("Cc1cc(C(F)(F)F)cc(N2C(=O)C[C@@H]3CN(Cc4ccc5c(c4)CN(C(=O)/C=C/CN(C)C)C5)c4c(F)cccc4N(C)C(=O)[C@H]32)n1", "M⁻¹ s⁻¹", "1.65e+06"),
    ("C=CC(=O)N1CC(N2CCC(F)(CN3C[C@H]4CC(=O)N(c5cc(C(F)(F)F)cc(C)n5)[C@@H]4C(=O)N(C)c4cccc(C)c43)CC2)C1", "M⁻¹ s⁻¹", "1.54e+06"),
    ("C=C(CN(C)C)C(=O)N1CC(CCC(F)CN2C[C@H]3CC(=O)N(c4cc(C(F)(F)F)cc(C)n4)[C@@H]3C(=O)N(C)c3cccc(Cl)c32)C1 (some centres unmarked)", "M⁻¹ s⁻¹", "3.04e+06"),
    ("Cc1cc(C(F)(F)F)cc(N2C(=O)C[C@@H]3CN(CCCOC4CN(C(=O)/C(Cl)=C/CN(C)C)C4)c4c(F)cccc4N(C)C(=O)[C@H]32)n1", "M⁻¹ s⁻¹", "1.46e+06"),
]

----------
Below, each of the compounds is paired with its reported Kinact/Kl value.
assay-target: Human Polθ polymerase domain (aa1820-2590) (Homo sapiens, UniProt O75417)
Construct: Human Polθ polymerase domain (aa1820-2590) was expressed in E. coli; made in house; host or cells: E. coli
Sequence (O75417 1820-2590): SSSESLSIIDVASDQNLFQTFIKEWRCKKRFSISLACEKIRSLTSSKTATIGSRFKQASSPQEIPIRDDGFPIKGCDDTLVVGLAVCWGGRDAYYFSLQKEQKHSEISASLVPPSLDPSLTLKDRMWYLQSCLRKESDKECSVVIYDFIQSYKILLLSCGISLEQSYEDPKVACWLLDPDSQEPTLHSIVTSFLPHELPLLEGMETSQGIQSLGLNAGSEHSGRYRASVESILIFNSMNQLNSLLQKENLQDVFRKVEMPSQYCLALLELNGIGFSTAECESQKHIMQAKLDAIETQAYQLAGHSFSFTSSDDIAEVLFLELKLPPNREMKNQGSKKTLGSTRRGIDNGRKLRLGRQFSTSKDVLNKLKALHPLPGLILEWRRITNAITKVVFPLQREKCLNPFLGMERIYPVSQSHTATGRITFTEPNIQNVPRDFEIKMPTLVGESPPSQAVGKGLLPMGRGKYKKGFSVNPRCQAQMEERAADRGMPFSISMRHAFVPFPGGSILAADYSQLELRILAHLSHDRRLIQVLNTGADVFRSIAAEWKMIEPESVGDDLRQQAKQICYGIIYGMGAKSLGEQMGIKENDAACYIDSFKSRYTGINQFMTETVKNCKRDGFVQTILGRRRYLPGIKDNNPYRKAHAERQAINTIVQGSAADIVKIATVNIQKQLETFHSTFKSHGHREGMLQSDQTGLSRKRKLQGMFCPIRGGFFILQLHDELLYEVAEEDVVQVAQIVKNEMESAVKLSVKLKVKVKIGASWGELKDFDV
protocol: Polθ Polymerase Domain Kinact/KI Assay (PicoGreen)
Format: biochemical
measurement-parameters: 0.8 nM Polθ, 100 nM DNA substrate, kobs vs [I] fit for 2-step covalent inhibitor
measured-parameter: Kinact/Kl (µM⁻¹ s⁻¹)

# compound, assay-target, obs-value
records = [
    ("C=CC(=O)N1CC(N2CC[C@@H](CN3C[C@H]4CC(=O)N(c5cc(C(F)(F)F)cc(C)n5)[C@@H]4C(=O)N(C)c4cccc(Cl)c43)C2)C1 [Example 219]", "Human Polθ polymerase domain (aa1820-2590) (Homo sapiens, UniProt O75417)", 0.56),
    ("C=CC(=O)N1CCC(n2cnc(CN3C[C@H]4CC(=O)N(c5cc(C(F)(F)F)cc(C)n5)[C@@H]4C(=O)N(C)c4cccc(C)c43)n2)CC1 [Example 204]", "Human Polθ polymerase domain (aa1820-2590) (Homo sapiens, UniProt O75417)", 0.98),
    ("C=C(CN(C)C)C(=O)N[C@H]1CCc2nc(CN3C[C@H]4CC(=O)N(c5cc(C(F)(F)F)cc(C)n5)[C@@H]4C(=O)N(C)c4cccc(C)c43)cn2C1 (racemic) [Example 329b]", "Human Polθ polymerase domain (aa1820-2590) (Homo sapiens, UniProt O75417)", 5.73),
    ("C=CC(=O)N1Cc2nc(CN3C[C@H]4CC(=O)N(c5cc(C(F)(F)F)cc(C)n5)[C@@H]4C(=O)N(C)c4cccc(Cl)c43)ccc2C1CC#N (single isomer, unassigned) [Example 290b]", "Human Polθ polymerase domain (aa1820-2590) (Homo sapiens, UniProt O75417)", 1.30),
    ("C=C(CN(C)C)C(=O)N1CCc2cc(CN3C[C@H]4CC(=O)N(c5cc(C(F)(F)F)cc(C)n5)[C@@H]4C(=O)N(C)c4cccc(F)c43)ccc2C1 [Example 154]", "Human Polθ polymerase domain (aa1820-2590) (Homo sapiens, UniProt O75417)", 2.30),
]

----------
assay-target: Human Polθ polymerase domain (aa1820-2590) (Homo sapiens)
Construct: Human Polθ polymerase domain (aa1820-2590) was expressed in E. coli; made in house; host or cells: E. coli
protocol: Polθ Polymerase Domain Kinact/KI Assay (PicoGreen)
Type: biochemical
measurement-parameters: 0.8 nM Polθ, 100 nM DNA substrate, kobs vs [I] fit for 2-step covalent inhibitor
Below, each of the compounds is paired with its reported Kinact/Kl value.

# compound, quantity-unit, Kinact/Kl
records = [
    ("C=CC(=O)N1CCN(CCN2C[C@H]3CC(=O)N(c4cc(C(F)(F)F)cc(C)n4)[C@@H]3C(=O)N(C)c3cccc(Cl)c32)CC1CC#N (mixture of isomers) [Example 258b]", "M⁻¹ s⁻¹", "1.53e+06"),
    ("C=C(CN(C)C)C(=O)N[C@H]1CCn2cc(CN3C[C@H]4CC(=O)N(c5cc(C(F)(F)F)cc(C)n5)[C@@H]4C(=O)N(C)c4cccc(C)c43)nc2C1 (racemic) [Example 330a]", "M⁻¹ s⁻¹", "2.74e+06"),
    ("C=CC(=O)N1CC(N2CCN(CCN3C[C@H]4CC(=O)N(c5cc(C(F)(F)F)cc(C)n5)[C@@H]4C(=O)N(C)c4cc(F)cc(C)c43)CC2)C1 [Example 18]", "M⁻¹ s⁻¹", "1.18e+06"),
    ("C=CC(=O)N1CC(N2CC[C@H](CN3C[C@H]4CC(=O)N(c5cc(C(F)(F)F)cc(C)n5)[C@@H]4C(=O)N(C)c4cccc(C)c43)C2)C1 [Example 223]", "M⁻¹ s⁻¹", "1.62e+06"),
    ("C=CC(=O)N1CCN(c2nc(CN3C[C@H]4CC(=O)N(c5cc(C(F)(F)F)cc(C)n5)[C@@H]4C(=O)N(C)c4cccc(F)c43)co2)CC1 [Example 124]", "M⁻¹ s⁻¹", 11000),
    ("COc1cc(CN2C[C@H]3CC(=O)N(c4cc(C(F)(F)F)cc(C)n4)[C@@H]3C(=O)N(C)c3cccc(C)c32)ccc1NC(=O)/C=C/CN(C)C [Example 208]", "M⁻¹ s⁻¹", "4.36e+06"),
    ("C=CC(=O)N1CC(N2CCN(CCN3C[C@H]4CC(=O)N(c5cc(C(F)(F)F)cc(C)n5)[C@@H]4C(=O)N(C)c4cccc(F)c43)C[C@H](F)C2)C1 [Example 29]", "M⁻¹ s⁻¹", 320000),
    ("Cc1cc(C(F)(F)F)cc(N2C(=O)C[C@@H]3CN(CCCCC4CN(C(=O)/C(Cl)=C/CN(C)C)C4)c4c(C)cccc4N(C)C(=O)[C@H]32)n1 [Example 254]", "M⁻¹ s⁻¹", "2.13e+06"),
    ("C=CC(=O)NC1Cc2ccc(CN3C[C@H]4CC(=O)N(c5cc(C(F)(F)F)cc(C)n5)[C@@H]4C(=O)N(C)c4cccc(Cl)c43)cc2C1 (some centres unmarked) [Example 286]", "M⁻¹ s⁻¹", 610000),
    ("C=CC(=O)N1CC2(CN(CCN3C[C@H]4CC(=O)N(c5cc(C(F)(F)F)cc(C)n5)[C@@H]4C(=O)N(C)c4cccc(F)c43)CC3COCCN32)C1 (single isomer, unassigned) [Example 24a]", "M⁻¹ s⁻¹", "1.63e+06"),
    ("C=CC(=O)N1CC(N2CCC(CN3C[C@H]4CC(=O)N(c5cc(C(F)(F)F)cc(C)n5)[C@@H]4C(=O)N(C)c4cccc(C)c43)CC2)C1 [Example 93]", "M⁻¹ s⁻¹", "2.73e+06"),
    ("C=CC(=O)N1CC2(CN(CCN3C[C@H]4CC(=O)N(c5cc(C(F)(F)F)cc(C)n5)[C@@H]4C(=O)N(C)c4cccc(F)c43)CC(=O)N2)C1 [Example 104]", "M⁻¹ s⁻¹", "1.86e+06"),
    ("C=C(CN(C)C)C(=O)N1CC(c2cccc(CN3C[C@H]4CC(=O)N(c5cc(C(F)(F)F)cc(C)n5)[C@@H]4C(=O)N(C)c4cccc(F)c43)c2)C1 [Example 152]", "M⁻¹ s⁻¹", "5.05e+06"),
    ("C=C(CN(C)C)C(=O)N1CC(CN2C[C@H]3CC(=O)N(c4cc(C(F)(F)F)cc(C)n4)[C@@H]3C(=O)N(C)c3cccc(Cl)c32)C1 [Example 297]", "M⁻¹ s⁻¹", "1.47e+06"),
]
